// reported IC50 per item
system: HepG2; experiment: Antiproliferative activity against human HepG2 cells after 48 hrs by MTT assay; format: functional, cell-based; settings: HepG2, 48 h
Respond with the bare value in nM.

Take a look at these entries with their results.
item-smiles: O=[N+]([O-])c1cc(C(F)(F)F)cc([N+](=O)[O-])c1Oc1c(Cl)cc(Cl)cc1/C=N/OCc1ccccc1Cl
readout-value: 1120

item-smiles: O=[N+]([O-])c1cc(C(F)(F)F)cc([N+](=O)[O-])c1Oc1ccccc1/C=N\OCc1ccccc1F
readout-value: 680

item-smiles: O=[N+]([O-])c1cc(C(F)(F)F)cc([N+](=O)[O-])c1Oc1ccc(Br)cc1/C=N/OCc1ccccc1Cl
readout-value: 1240

item-smiles: O=[N+]([O-])c1cc(C(F)(F)F)cc([N+](=O)[O-])c1Oc1c(Br)cc(Br)cc1/C=N/OCc1ccc(Cl)cc1Cl
readout-value: 1050

item-smiles: O=[N+]([O-])c1cc(C(F)(F)F)cc([N+](=O)[O-])c1Oc1c(Br)cc(Br)cc1/C=N\OCc1ccccc1Cl
readout-value: 2450

item-smiles: O=[N+]([O-])c1cc(C(F)(F)F)cc([N+](=O)[O-])c1Oc1ccc(Cl)cc1/C=N\OCc1ccccc1
readout-value: 1790

Name the recorded IC50 for "COc1cc2c(c(OC)c1OC)-c1ccc(OC)c(=O)cc1[C@@H](NC(C)=O)CC2" .
230

Name the recorded IC50 for "O=[N+]([O-])c1cc(C(F)(F)F)cc([N+](=O)[O-])c1Oc1ccc(Br)cc1/C=N\OCc1ccccc1" .
1180

Name the recorded IC50 for "O=[N+]([O-])c1cc(C(F)(F)F)cc([N+](=O)[O-])c1Oc1ccc(Br)cc1/C=N\OCc1ccc(Cl)cc1Cl" .
1070

Name the recorded IC50 for "O=[N+]([O-])c1cc(C(F)(F)F)cc([N+](=O)[O-])c1Oc1c(Cl)cc(Cl)cc1/C=N\OCc1ccccc1" .
1120

Name the recorded IC50 for "O=[N+]([O-])c1cc(C(F)(F)F)cc([N+](=O)[O-])c1Oc1ccc(Cl)cc1/C=N\OCc1ccccc1F" .
1020

Name the recorded IC50 for "O=[N+]([O-])c1cc(C(F)(F)F)cc([N+](=O)[O-])c1Oc1c(Cl)cc(Cl)cc1/C=N\OCc1ccccc1F" .
820

Name the recorded IC50 for "O=[N+]([O-])c1cc(C(F)(F)F)cc([N+](=O)[O-])c1Oc1c(Br)cc(Br)cc1/C=N\OCc1ccccc1F" .
1100

Name the recorded IC50 for "O=[N+]([O-])c1cc(C(F)(F)F)cc([N+](=O)[O-])c1Oc1ccc(Cl)cc1/C=N\OCc1ccccc1Cl" .
1510

====

assay: Inhibition of bovine tubulin polymerization after 20 mins by spectrophotometry; design: species or system Bos taurus
pIC50: −log10 of the molar value.
Assign class by pIC50: not lower than 5 means Met; lower than 5 means Not met.

Worked cases, answers included:
compound: COc1cc2c(c(OC)c1OC)-c1ccc(OC)c(=O)cc1[C@@H](NC(C)=O)CC2 [COLCHICINE]
class-name: Met
//
compound: O=[N+]([O-])c1cc(C(F)(F)F)cc([N+](=O)[O-])c1Oc1ccccc1/C=N/OCc1ccccc1Cl
class-name: Met
//
compound: O=[N+]([O-])c1cc(C(F)(F)F)cc([N+](=O)[O-])c1Oc1c(Br)cc(Br)cc1/C=N\OCc1ccccc1F
class-name: Met
//
compound: O=[N+]([O-])c1cc(C(F)(F)F)cc([N+](=O)[O-])c1Oc1c(Cl)cc(Cl)cc1/C=N/OCc1ccc(Cl)cc1Cl
class-name: Met
//
compound: O=[N+]([O-])c1cc(C(F)(F)F)cc([N+](=O)[O-])c1Oc1ccccc1/C=N\OCc1ccccc1
class-name: Not met
//
compound: O=[N+]([O-])c1cc(C(F)(F)F)cc([N+](=O)[O-])c1Oc1c(Br)cc(Br)cc1/C=N\OCc1ccccc1
class-name: Not met
//
compound: O=[N+]([O-])c1cc(C(F)(F)F)cc([N+](=O)[O-])c1Oc1c(Cl)cc(Cl)cc1/C=N/OCc1ccccc1Cl
class-name: Not met
//
compound: O=[N+]([O-])c1cc(C(F)(F)F)cc([N+](=O)[O-])c1Oc1ccc(Br)cc1/C=N\OCc1ccc(Cl)cc1Cl
class-name: Met

Kindly determine if pIC50 recorded for "O=[N+]([O-])c1cc(C(F)(F)F)cc([N+](=O)[O-])c1Oc1ccc(Br)cc1/C=N\OCc1ccccc1" is above or exactly 5.
Not met

Kindly determine if pIC50 recorded for "O=[N+]([O-])c1cc(C(F)(F)F)cc([N+](=O)[O-])c1Oc1ccccc1/C=N/OCc1ccc(Cl)cc1Cl" is above or exactly 5.
Met

Kindly determine if pIC50 recorded for "O=[N+]([O-])c1cc(C(F)(F)F)cc([N+](=O)[O-])c1Oc1c(Br)cc(Br)cc1/C=N/OCc1ccc(Cl)cc1Cl" is above or exactly 5.
Not met

Kindly determine if pIC50 recorded for "O=[N+]([O-])c1cc(C(F)(F)F)cc([N+](=O)[O-])c1Oc1ccc(Cl)cc1/C=N\OCc1ccccc1" is above or exactly 5.
Not met

Kindly determine if pIC50 recorded for "O=[N+]([O-])c1cc(C(F)(F)F)cc([N+](=O)[O-])c1Oc1ccccc1/C=N\OCc1ccccc1F" is above or exactly 5.
Met

Kindly determine if pIC50 recorded for "O=[N+]([O-])c1cc(C(F)(F)F)cc([N+](=O)[O-])c1Oc1c(Br)cc(Br)cc1/C=N\OCc1ccccc1Cl" is above or exactly 5.
Not met

Kindly determine if pIC50 recorded for "O=[N+]([O-])c1cc(C(F)(F)F)cc([N+](=O)[O-])c1Oc1ccc(Br)cc1/C=N\OCc1ccccc1F" is above or exactly 5.
Met

Provenance of the data: ChEMBL document CHEMBL2016460
